SYSTEM: UniProtKB Q9UNQ0
Sequence (Q9UNQ0 whole entry): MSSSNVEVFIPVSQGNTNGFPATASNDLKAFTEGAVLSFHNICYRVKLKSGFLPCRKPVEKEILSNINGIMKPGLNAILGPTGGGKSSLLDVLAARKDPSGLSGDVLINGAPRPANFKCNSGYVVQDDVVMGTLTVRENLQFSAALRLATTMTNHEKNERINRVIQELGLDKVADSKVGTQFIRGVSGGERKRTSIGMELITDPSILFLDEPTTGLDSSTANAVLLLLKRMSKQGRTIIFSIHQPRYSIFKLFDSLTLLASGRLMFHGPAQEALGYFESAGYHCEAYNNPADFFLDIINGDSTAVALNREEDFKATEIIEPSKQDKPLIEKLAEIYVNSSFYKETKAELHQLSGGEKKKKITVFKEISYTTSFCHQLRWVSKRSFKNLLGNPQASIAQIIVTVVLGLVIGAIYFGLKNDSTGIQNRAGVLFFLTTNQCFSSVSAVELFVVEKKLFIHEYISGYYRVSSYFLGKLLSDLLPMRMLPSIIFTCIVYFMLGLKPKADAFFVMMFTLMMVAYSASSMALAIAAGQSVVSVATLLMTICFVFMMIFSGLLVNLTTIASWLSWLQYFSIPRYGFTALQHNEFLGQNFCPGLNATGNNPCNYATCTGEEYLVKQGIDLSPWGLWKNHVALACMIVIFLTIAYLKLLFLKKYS
TEST_DETAILS: ABCG2 ATPase stimulation in membrane vesicles; supported by HPLC accumulation in HEK293/ABCG2-WT cells
ASSAY_ENDPOINT: EC50 (nM)

* NS(=O)(=O)OC[C@H]1C[C@@H](Nc2ccnc3cc(-c4cccc(SC(F)(F)F)c4)nn23)[C@H](O)[C@@H]1O | 1780
